// reported TGI for each item listed
- Test system: MDA-MB-435
- test.protocol: NCI tumour cell line growth inhibition, 48 h
Where a SMILES comes first, the peptide text is derived from it. [ ]: non-standard residue; d: D form. The star is where a group is joined. Cbz = O=C(OCc1ccccc1)*; Aib = CC(C)(N)C(=O)O

Lab note: measured TGI of CC[C@@H](C(=O)[C@@H](C)[C@@H](O)[C@H](C)[C@@H]1O[C@@H]([C@@H](CC)C(=O)O)CC[C@@H]1C)[C@H]1O[C@]2(C=C[C@@H](O)[C@]3(CC[C@@](C)([C@H]4CC[C@](O)(CC)[C@H](C)O4)O3)O2)[C@H](C)C[C@@H]1C was 2720 nM

Lab note: measured TGI of CC(C)(NC(=O)C(C)(C)NC(=O)OCc1ccccc1)C(=O)O (Cbz-[Aib]-[Aib]-OH) was > 100000 nM

Now consider the entry below.
Lab note: measured TGI of Cc1ccc2c(=O)cc(-c3cccc(F)c3)[nH]c2n1 was 22.4 nM
